TEST_NAME: Stability of the compound in mouse plasma assessed as parent compound remaining after 6 hrs
Format: ADME, cell-free
STUDY_CONDITIONS: read-out: Stabilty
Starred links: 1 amine or outer side, 2 acyl side, 3 side chain; linkers in the order of their positions; H or OH if unused. Non-standard residues stand in square brackets, D forms with d. Residues, ends and D or L forms follow the SMILES beside them. X9 = CCCCCC[C@@H](OCCN[*:1])[C@@H](C)C(=O)[*:2]; aThr = C[C@H](O)[C@H](N)C(=O)O; NMeL = CN[C@@H](CC(C)C)C(=O)O; Chg = N[C@H](C(=O)O)C1CCCCC1; Dap = NC[C@H](N)C(=O)O
RECORDED_ENDPOINT: remaining at 6 h

COMPOUND	RECORDED_ENDPOINT	MEASURED_VALUE
CCCCCC[C@H]1OCCNC(=O)[C@H]([C@H](C)O)NC(=O)[C@H](CN)NC(=O)[C@H](C2CCCCC2)NC(=O)[C@H](CC(C)C)N(C)C(=O)[C@@H]1C (cyclo([Chg][Dap][aThr][X9][NMeL]))	remaining at 6 h	96%

* * *

TEST_NAME: Protein binding in rat plasma
Type: ADME, cell-free
STUDY_CONDITIONS: read-out: PPB (converted)
Starred links: 1 amine or outer side, 2 acyl side, 3 side chain; linkers in the order of their positions; H or OH if unused. Non-standard residues stand in square brackets, D forms with d. Residues, ends and D or L forms follow the SMILES beside them. *: point of attachment. X6 = C[C@H](CO[C@H](CC1C[C@H]2CC[C@@H](C1)C2)[C@@H](C)C(=O)[*:2])N[*:1]; dAlaψ(CH2NBu)Nle = CCCC[C@@H](C(=O)[*:2])N(CCCC)C[C@@H](C)N[*:1]; X3 = C[C@H](CO[C@H](CC1CC2(CCC2)C1)[C@@H](C)C(=O)[*:2])N[*:1]; Cyclobutyl(trans-3-NH2) = N[C@H]1C[C@H](*)C1; Gly(cHept) = N[C@H](C(=O)O)C1CCCCCC1; aThr = C[C@H](O)[C@H](N)C(=O)O; NMeL = CN[C@@H](CC(C)C)C(=O)O; Chg = N[C@H](C(=O)O)C1CCCCC1; NMeNva = CCC[C@H](NC)C(=O)O; Dap = NC[C@H](N)C(=O)O; X5 = NCCCNCCC*
RECORDED_ENDPOINT: fraction unbound

MOLECULE	RECORDED_ENDPOINT	MEASURED_VALUE
CCC[C@H]1C(=O)N[C@@H](C2CCCCCC2)C(=O)N[C@@H](CN)C(=O)N[C@@H](COCCCNCCCN)C(=O)N[C@H](C)CO[C@H](CC2CC3(CCC3)C2)[C@@H](C)C(=O)N1C (cyclo([Dap]S(X5)[X3][NMeNva][Gly(cHept)]))	fraction unbound	0.025
CCCC[C@H]1C(=O)N(C)[C@@H](CC(C)C)C(=O)N[C@@H](C2CCCCC2)C(=O)N[C@@H](CN)C(=O)N[C@@H]([C@H](C)O)C(=O)N[C@H](C)CN1CCCC (cyclo([Chg][Dap][aThr][dAlaψ(CH2NBu)Nle][NMeL]))	fraction unbound	0.005
CCC[C@H]1C(=O)N[C@@H](C2CCCCCC2)C(=O)N[C@@H](CN)C(=O)N[C@@H](CO[C@H]2C[C@H](N)C2)C(=O)N[C@H](C)CO[C@H](CC2C[C@H]3CC[C@@H](C2)C3)[C@@H](C)C(=O)N1C (stereo partly drawn) (cyclo([Dap]S(Cyclobutyl(trans-3-NH2))[X6][NMeNva][Gly(cHept)]))	fraction unbound	0.026
CCC[C@H]1C(=O)N[C@@H](C2CCCCCC2)C(=O)N[C@@H](CN)C(=O)N[C@@H](COCCCNCCCN)C(=O)N[C@H](C)CO[C@H](CC2C[C@H]3CC[C@@H](C2)C3)[C@@H](C)C(=O)N1C (some centres undefined) (cyclo([Dap]S(X5)[X6][NMeNva][Gly(cHept)]))	fraction unbound	0.026

* * *

TEST_NAME: Stability of the compound in human plasma assessed as parent compound remaining after 24 hrs
Assay type: ADME, cell-free
STUDY_CONDITIONS: read-out: Stabilty
Starred links: 1 amine or outer side, 2 acyl side, 3 side chain; linkers in the order of their positions; H or OH if unused. Non-standard residues stand in square brackets, D forms with d. Residues, ends and D or L forms follow the SMILES beside them. *: point of attachment. dAlaψ(CH2NBu)Nle = CCCC[C@@H](C(=O)[*:2])N(CCCC)C[C@@H](C)N[*:1]; X3 = C[C@H](CO[C@H](CC1CC2(CCC2)C1)[C@@H](C)C(=O)[*:2])N[*:1]; X1 = CCCCCC[C@@H](OC[C@@H](C)N[*:1])[C@@H](C)C(=O)[*:2]; Cyclobutyl(trans-3-NH2) = N[C@H]1C[C@H](*)C1; Gly(cHept) = N[C@H](C(=O)O)C1CCCCCC1; Chg = N[C@H](C(=O)O)C1CCCCC1; NMeNva = CCC[C@H](NC)C(=O)O; X2 = NC[C@H]1C[C@H](*)C1; Dap = NC[C@H](N)C(=O)O; X5 = NCCCNCCC*

COMPOUND	remaining at 24 h, %
CCCCCC[C@H]1OC[C@@H](C)NC(=O)[C@H](CO[C@H]2C[C@H](CN)C2)NC(=O)[C@H](CN)NC(=O)[C@H](C2CCCCCC2)NC(=O)[C@H](CCC)N(C)C(=O)[C@@H]1C (cyclo([Dap]S(X2)[X1][NMeNva][Gly(cHept)]))	98
CCCC[C@H]1C(=O)N(C)[C@@H](CCC)C(=O)N[C@@H](C2CCCCC2)C(=O)N[C@@H](CN)C(=O)N[C@@H](CO[C@H]2C[C@H](N)C2)C(=O)N[C@H](C)CN1CCCC (cyclo([Chg][Dap]S(Cyclobutyl(trans-3-NH2))[dAlaψ(CH2NBu)Nle][NMeNva]))	105
CCCCCC[C@H]1OC[C@@H](C)NC(=O)[C@H]([C@H](C)O)NC(=O)[C@H](CN)NC(=O)[C@H](C2CCCCC2)NC(=O)[C@H](CC(C)C)N(C)C(=O)[C@@H]1C	93
CCC[C@H]1C(=O)N[C@@H](C2CCCCCC2)C(=O)N[C@@H](CN)C(=O)N[C@@H](COCCCNCCCN)C(=O)N[C@H](C)CO[C@H](CC2CC3(CCC3)C2)[C@@H](C)C(=O)N1C (cyclo([Dap]S(X5)[X3][NMeNva][Gly(cHept)]))	103
CCCCCCN1CCCNC(=O)[C@H]([C@H](C)O)NC(=O)[C@H](CN)NC(=O)[C@H]([C@H](C)CC)NC(=O)[C@H](CC(C)C)N(C)C(=O)[C@@H]1C	101

* * *

Catalogue of MIC readings, one per entry.
System: Escherichia coli CFT073
TEST_NAME: Inhibition of LspA in wild type Escherichia coli CFT073 assessed as inhibition of bacterial growth
Starred links: 1 amine or outer side, 2 acyl side, 3 side chain; linkers in the order of their positions; H or OH if unused. Non-standard residues stand in square brackets, D forms with d. Residues, ends and D or L forms follow the SMILES beside them. *: point of attachment. X6 = C[C@H](CO[C@H](CC1C[C@H]2CC[C@@H](C1)C2)[C@@H](C)C(=O)[*:2])N[*:1]; dAlaψ(CH2NBu)Nle = CCCC[C@@H](C(=O)[*:2])N(CCCC)C[C@@H](C)N[*:1]; X3 = C[C@H](CO[C@H](CC1CC2(CCC2)C1)[C@@H](C)C(=O)[*:2])N[*:1]; X1 = CCCCCC[C@@H](OC[C@@H](C)N[*:1])[C@@H](C)C(=O)[*:2]; X8 = CCCCCC[C@@H](O[C@@H](C)CN[*:1])[C@@H](C)C(=O)[*:2]; X9 = CCCCCC[C@@H](OCCN[*:1])[C@@H](C)C(=O)[*:2]; Cyclobutyl(trans-3-NH2) = N[C@H]1C[C@H](*)C1; X16 = CCCC[C@@H](C(=O)[*:2])N(CCCC)CCN[*:1]; X4 = CCCCCCN(CCN[*:1])[C@@H](C)C(=O)[*:2]; Gly(cHept) = N[C@H](C(=O)O)C1CCCCCC1; Propyl(3-guanidino) = N=C(N)NCCC*; aThr = C[C@H](O)[C@H](N)C(=O)O; NMeL = CN[C@@H](CC(C)C)C(=O)O; Chg = N[C@H](C(=O)O)C1CCCCC1; NMeNva = CCC[C@H](NC)C(=O)O; Dap = NC[C@H](N)C(=O)O; X15 = O=C(O)CCCNCCC*; X12 = NCC(CN)*; X5 = NCCCNCCC*

COMPOUND	TARGET_DESC	MEASUREMENT_UNIT	MIC
CCCC[C@H]1C(=O)N(C)[C@@H](CC(C)C)C(=O)N[C@@H](C2CCCCC2)C(=O)N[C@@H](CN)C(=O)N[C@@H]([C@H](C)O)C(=O)N[C@H](C)CN1CCCC (cyclo([Chg][Dap][aThr][dAlaψ(CH2NBu)Nle][NMeL]))	Escherichia coli CFT073	µM	1.6
CCC[C@H]1C(=O)N[C@@H](C2CCCCCC2)C(=O)N[C@@H](CN)C(=O)N[C@@H](COCCCNCCCN)C(=O)N[C@H](C)CO[C@H](CC2C[C@H]3CC[C@@H](C2)C3)[C@@H](C)C(=O)N1C (stereo partly drawn) (cyclo([Dap]S(X5)[X6][NMeNva][Gly(cHept)]))	Escherichia coli CFT073	µM	0.78
CCCCCC[C@H]1OC(=O)CNC(=O)[C@H]([C@H](C)O)NC(=O)[C@H](CO)NC(=O)[C@H]([C@H](C)CC)NC(=O)[C@H](CC(C)C)N(C)C(=O)[C@@H]1C	Escherichia coli CFT073	µM	44
CCCCCCN1CCNC(=O)[C@H](CO[C@H]2C[C@H](N)C2)NC(=O)[C@H](CN)NC(=O)[C@H](C2CCCCC2)NC(=O)[C@H](CC(C)C)N(C)C(=O)[C@@H]1C (cyclo([Chg][Dap]S(Cyclobutyl(trans-3-NH2))[X4][NMeL]))	Escherichia coli CFT073	µM	6.3
CCC[C@H]1C(=O)N[C@@H](C2CCCCCC2)C(=O)N[C@@H](CN)C(=O)N[C@@H]([C@H](C)O)C(=O)NCC(=O)O[C@H](C[C@@H]2CC[C@@H]3CC[C@H]2C3)[C@@H](C)C(=O)N1C	Escherichia coli CFT073	µM	0.4
CCCCCC[C@H]1OCCNC(=O)[C@H]([C@H](C)O)NC(=O)[C@H](CN)NC(=O)[C@H](C2CCCCC2)NC(=O)[C@H](CC(C)C)N(C)C(=O)[C@@H]1C (cyclo([Chg][Dap][aThr][X9][NMeL]))	Escherichia coli CFT073	µM	8.7
COC(C)(C)CCCCCC[C@H]1OC(=O)CNC(=O)[C@H]([C@H](C)O)NC(=O)[C@H](CN)NC(=O)[C@H](C2CCCCC2)NC(=O)[C@H](CC(C)C)N(C)C(=O)[C@@H]1C	Escherichia coli CFT073	µM	2.2
CCCCCC[C@H]1OC[C@@H](C)NC(=O)[C@H](COC(CN)CN)NC(=O)[C@H](CN)NC(=O)[C@H](C2CCCCCC2)NC(=O)[C@H](CCC)N(C)C(=O)[C@@H]1C (cyclo([Dap]S(X12)[X1][NMeNva][Gly(cHept)]))	Escherichia coli CFT073	µM	3.1
CCC[C@H]1C(=O)N[C@@H](C2CCCCCC2)C(=O)N[C@@H](CN)C(=O)N[C@@H](COCCCNCCCN)C(=O)N[C@H](C)CO[C@H](CC2CC3(CCC3)C2)[C@@H](C)C(=O)N1C (cyclo([Dap]S(X5)[X3][NMeNva][Gly(cHept)]))	Escherichia coli CFT073	µM	1.6
CCCCCC[C@H]1OC(=O)CNC(=O)[C@H]([C@H](C)O)NC(=O)[C@H](CN)NC(=O)[C@H](C2CCCCC2)NC(=O)[C@H](CC)N(C)C(=O)[C@@H]1C	Escherichia coli CFT073	µM	8.8
CCC[C@H]1C(=O)N[C@@H](C2CCCCCC2)C(=O)N[C@@H](CN)C(=O)N[C@@H](CO[C@H]2C[C@H](N)C2)C(=O)N[C@H](C)CO[C@H](CC2CC3(CCC3)C2)[C@@H](C)C(=O)N1C (cyclo([Dap]S(Cyclobutyl(trans-3-NH2))[X3][NMeNva][Gly(cHept)]))	Escherichia coli CFT073	µM	2.2
CCCC(C)(C)CC[C@H]1OC(=O)CNC(=O)[C@H]([C@H](C)O)NC(=O)[C@H](CN)NC(=O)[C@H]([C@H](C)CC)NC(=O)[C@H](CC(C)C)N(C)C(=O)[C@@H]1C	Escherichia coli CFT073	µM	3.1
CCCC[C@H]1C(=O)N(C)[C@@H](CC(C)C)C(=O)N[C@@H](C2CCCCC2)C(=O)N[C@@H](CN)C(=O)N[C@@H]([C@H](C)O)C(=O)NCCN1CCCC (cyclo([Chg][Dap][aThr][X16][NMeL]))	Escherichia coli CFT073	µM	6.3
CCCCCC[C@H]1OC[C@@H](C)NC(=O)[C@H](COc2ccc(CCN)cc2)NC(=O)[C@H](CN)NC(=O)[C@H](C2CCCCC2)NC(=O)[C@H](CCC)N(C)C(=O)[C@@H]1C	Escherichia coli CFT073	µM	1.6
CCCCCCN1CCNC(=O)[C@H]([C@H](C)O)NC(=O)[C@H](CN)NC(=O)[C@H](C2CCCCC2)NC(=O)[C@H](CC(C)C)N(C)C(=O)[C@@H]1C (cyclo([Chg][Dap][aThr][X4][NMeL]))	Escherichia coli CFT073	µM	25
CCCCCC[C@H]1OC[C@@H](C)NC(=O)[C@H](COCCCNCCCC(=O)O)NC(=O)[C@H](CN)NC(=O)[C@H](C2CCCCCC2)NC(=O)[C@H](CCC)N(C)C(=O)[C@@H]1C (cyclo([Dap]S(X15)[X1][NMeNva][Gly(cHept)]))	Escherichia coli CFT073	µM	100
CCCCCC[C@H]1OC[C@@H](C)NC(=O)[C@H](COCCCNC(=N)N)NC(=O)[C@H](CN)NC(=O)[C@H](C2CCCCC2)NC(=O)[C@H](CC(C)C)N(C)C(=O)[C@@H]1C (cyclo([Chg][Dap]S(Propyl(3-guanidino))[X1][NMeL]))	Escherichia coli CFT073	µM	4.4
CCCCCC[C@H]1O[C@@H](C)CNC(=O)[C@H]([C@H](C)O)NC(=O)[C@H](CN)NC(=O)[C@H](C2CCCCC2)NC(=O)[C@H](CC(C)C)N(C)C(=O)[C@@H]1C (cyclo([Chg][Dap][aThr][X8][NMeL]))	Escherichia coli CFT073	µM	12
